measurement notes: chemical genetic growth profiling, strain panel (AID 1159580);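 also: tested at 20 µM; growth read once vehicle control cultures reached saturation at 30 °C; 1 = growth at the plate median or of vehicle wells; lower values mean less growth of the strain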
condition notes: S. cerevisiae deletion strains, growth OD, locus YDL214C, strain PRR2, hits give low values
The whole screen tested about 5,500 compounds, of which about 2,000 (36%) were called active. Roughly 18% stayed inconclusive and do not appear here. The list shows a part of the results.

- given smiles: "Cc1ccc(NC(=O)c2ccccc2N=Cc2cc(Cl)cc(Cl)c2O)c(N=Cc2cc(Cl)cc(Cl)c2O)c1"
  normalized growth: 0.459
- given smiles: "CC(=O)Nc1ccc(S(=O)(=O)Nc2ccccc2Oc2ccc(Cl)cc2Cl)cc1"
  normalized growth: 0.984
- given smiles: "OC(=Cc1nc2ccccc2nc1C=C(O)c1ccc(Cl)cc1)c1ccc(Cl)cc1"
  normalized growth: 0.895
- given smiles: "CC(=O)ON=C1c2cc([N+](=O)[O-])ccc2-c2ccc([N+](=O)[O-])cc21"
  normalized growth: 0.85
- given smiles: "O=C(NNc1ccc(I)cc1)c1cc(Cl)cc(Cl)c1"
  normalized growth: 0.88
